All figures here come from patent US20240150440A1.

- measured on: recombinant SARS-CoV-2 RBD with C-terminal AviTag (SARS-CoV-2, UniProt P0DTC2 319-541)
For each of the binders below, state its pKd.
Numbers only, as −log10 of the molar value.

The cases that follow already have their pKd on record.
{"binder": "MBP-5HVZ-R5C-E1-H6 (VHH, not shown: large carriers; small tags and cut ends) VHH: QVQLVESGGGLVQPGGSLRLSCAASGYIFSATVMHWFRQAPGKQREGVASINSTGSSQYADSVKGRFTISRDNAKNTVYLQMNSLKPEDTAVYYCAADGADVVYGNRYWGQGTQVTVSS", "pKd": 8.21}
{"binder": "MBP-5HVZ-R5C-A1-H6 (VHH, not shown: large carriers; small tags and cut ends) VHH: QVQLVESGGGLVQPGGSLRLSCAASGLDVSINFMHWYRQAPGKEREGVAGITWQGSTYYADSVKGRFTISRDNAKNTVYLQMNSLKPEDTAVYYCATVWAGGTPNDYWGQGTQVTVSS", "pKd": 6.42}

Record pKd per entry; entries follow.
1. MBP-5HVZ-R5C-B1-H6 (VHH, not shown: large carriers; small tags and cut ends) VHH: QVQLVESGGGLVQPGGSLRLSCAASGSGFSNNAMHWYRQAPGKQREGVAGITSGSVSFYADSVKGRFTISRDNAKNTVYLQMNSLKPEDTAVYYCAAVTGSSTGNAGQGYLTWGQGTQVTVSS
2. MBP-R5C-B1-H6 (VHH, not shown: large carriers; small tags and cut ends) VHH: QVQLVESGGGLVQPGGSLRLSCAASGSGFSNNAMHWYRQAPGKQREGVAGITSGSVSFYADSVKGRFTISRDNAKNTVYLQMNSLKPEDTAVYYCAAVTGSSTGNAGQGYLTWGQGTQVTVSS

Reply:
8.00
7.26
